The measured values listed here are drawn from ChEMBL document CHEMBL1133249.

Target chain: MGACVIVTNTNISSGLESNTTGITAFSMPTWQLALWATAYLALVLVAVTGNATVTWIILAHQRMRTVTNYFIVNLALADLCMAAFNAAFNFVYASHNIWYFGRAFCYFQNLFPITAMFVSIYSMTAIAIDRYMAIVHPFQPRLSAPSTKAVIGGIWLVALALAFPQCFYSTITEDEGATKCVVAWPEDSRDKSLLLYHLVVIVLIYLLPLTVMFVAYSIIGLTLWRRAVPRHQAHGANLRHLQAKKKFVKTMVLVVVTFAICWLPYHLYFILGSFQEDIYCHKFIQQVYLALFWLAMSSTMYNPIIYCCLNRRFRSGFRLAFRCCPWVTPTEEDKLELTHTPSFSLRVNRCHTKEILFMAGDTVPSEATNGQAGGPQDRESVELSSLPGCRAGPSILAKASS
result type: IC50

Query :: Quickly give me recorded IC50 for COc1cc(C(=O)N2CCO[C@@](CCN3CCC4(CC3)c3ccccc3C[C@H]4O)(c3ccc(Cl)c(Cl)c3)C2)cc(OC)c1OC (racemic)
Result :: > 1000 nM

Query :: Quickly give me recorded IC50 for COc1cc(C(=O)N2CCO[C@@](CCN3CCC4(CC3)c3ccccc3C[S@@+]4[O-])(c3ccc(Cl)c(Cl)c3)C2)cc(OC)c1OC (racemic)
Result :: > 1000 nM

Query :: Quickly give me recorded IC50 for COc1cc(C(=O)N2CCO[C@](CCN3CCC4(CC3)c3ccccc3C[C@@H]4O)(c3ccc(Cl)c(Cl)c3)C2)cc(OC)c1OC
Result :: 6.8 nM

Now let's try a different one.
Query :: Quickly give me recorded IC50 for COc1cc(C(=O)N2CCO[C@@](CCN3CCC4(CC3)c3ccccc3C[C@@H]4O)(c3ccc(Cl)c(Cl)c3)C2)cc(OC)c1OC
Result :: > 1000 nM

###

- system under test: Neuromedin-K receptor (Cavia porcellus, UniProt P30098)
- Sequence (P30098 whole entry): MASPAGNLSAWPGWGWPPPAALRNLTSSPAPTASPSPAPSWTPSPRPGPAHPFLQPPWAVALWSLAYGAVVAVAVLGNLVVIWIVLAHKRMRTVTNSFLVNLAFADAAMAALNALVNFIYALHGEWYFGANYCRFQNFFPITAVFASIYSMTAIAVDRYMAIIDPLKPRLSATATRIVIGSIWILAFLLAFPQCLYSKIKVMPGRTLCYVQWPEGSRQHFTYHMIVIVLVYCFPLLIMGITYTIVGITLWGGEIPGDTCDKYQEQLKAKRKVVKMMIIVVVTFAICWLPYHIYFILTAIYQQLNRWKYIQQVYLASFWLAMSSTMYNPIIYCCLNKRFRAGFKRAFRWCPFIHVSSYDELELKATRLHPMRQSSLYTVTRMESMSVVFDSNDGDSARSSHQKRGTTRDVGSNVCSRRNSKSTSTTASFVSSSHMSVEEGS
result type: IC50 (nM)
Reply numerically in nM, unit not repeated.

Query :: Quickly give me recorded IC50 for COc1cc(C(=O)N2CCO[C@](CCN3CCC4(CC3)c3ccccc3C[C@@H]4O)(c3ccc(Cl)c(Cl)c3)C2)cc(OC)c1OC
Result :: 2.7
